From: patent US20240309012A1

Experiment: Cytotoxicity test on Vero E6 cells by CCK8 kit
Type: cell-based
Details: African green monkey
This section presents compounds with their documented CC50 values.
endpointName: CC50

* COc1cc2c3cc1Oc1c(OC)c(OC)cc4c1[C@@H](Cc1ccc(CO)c(c1)Oc1ccc(cc1)C[C@@H]3N(C)CC2)N(C)CC4 | 70.5 µM
* COc1cc2c3cc1Oc1c(OC)c(OC)cc4c1[C@@H](Cc1ccc(C(=O)NC(C)C)c(c1)Oc1ccc(cc1)C[C@@H]3N(C)CC2)N(C)CC4 | 32 µM
* COc1cc2c3cc1Oc1c(OC)c(OC)cc4c1[C@@H](Cc1ccc(C(=O)NC5CCC5)c(c1)Oc1ccc(cc1)C[C@@H]3N(C)CC2)N(C)CC4 | 33.9 µM
* C=CC(=O)Nc1ccc2cc1Oc1ccc(cc1)C[C@H]1c3cc(c(OC)cc3CCN1C)Oc1c(OC)c(OC)cc3c1[C@@H](C2)N(C)CC3 | 31.1 µM
* CCCCCNC(=O)c1ccc2cc1Oc1ccc(cc1)C[C@H]1c3cc(c(OC)cc3CCN1C)Oc1c(OC)c(OC)cc3c1[C@@H](C2)N(C)CC3 | 10.4 µM
* COc1cc2c3cc1Oc1c(OC)c(OC)cc4c1[C@@H](Cc1ccc(C(N)=O)c(c1)Oc1ccc(cc1)C[C@@H]3N(C)CC2)N(C)CC4 | 63.2 µM

---

Test: Cytotoxicity test on Vero E6 cells by CCK8 kit
Format: cell-based
Details: African green monkey
endpointName: CC50 (µM)

- COc1cc2c3cc1Oc1c(OC)c(OC)cc4c1[C@@H](Cc1ccc(C(=O)OCCOCCO)c(c1)Oc1ccc(cc1)C[C@@H]3N(C)CC2)N(C)CC4 [Compound 65]: 58.4
- COc1cc2c3cc1Oc1c(OC)c(OC)cc4c1[C@@H](Cc1cc(c5oc(=O)[nH]c5c1)Oc1ccc(cc1)C[C@@H]3N(C)CC2)N(C)CC4 [Compound 18]: 14.7
- COc1cc2c3cc1Oc1c(OC)c(OC)cc4c1[C@@H](Cc1ccc(C(=O)NC5CCCC5)c(c1)Oc1ccc(cc1)C[C@@H]3N(C)CC2)N(C)CC4 [Compound 28]: 22.5
- COc1cc2c3cc1Oc1c(OC)c(OC)cc4c1[C@@H](Cc1ccc(C(=O)Nc5ccc(C(F)(F)F)cc5)c(c1)Oc1ccc(cc1)C[C@@H]3N(C)CC2)N(C)CC4 [Compound 54]: 10.5
- COc1cc2c3cc1Oc1c(OC)c(OC)cc4c1[C@@H](Cc1cccc(c1)Oc1ccc(cc1)C[C@@H]3N(C)CC2)N(C)CC4 [Compound 39]: 17.1
- COc1cc2c3cc1Oc1c(OC)c(OC)cc4c1[C@@H](Cc1ccc(C=O)c(c1)Oc1ccc(cc1)C[C@@H]3N(C)CC2)N(C)CC4 [Compound 2]: 102
